assay-explanation: mouse plasma protein binding
Format: in vitro ADME
particulars: read-out: mouse PPB (converted)
reported-property: fraction unbound
Write the value as a bare number.

Exam item: Given CCOc1ccc(-c2nnc([C@H]3C[C@H](NC(=O)c4cccc5nccnc45)C3)n2-c2ccccc2F)nc1 , respond with its fraction unbound.
Marked response: 0.0142

====

target-system: TNKS2 (Homo sapiens, UniProt Q9H2K2)
Construct: TNKS2 (residues 873–1162); made in house
Sequence (Q9H2K2 873-1162): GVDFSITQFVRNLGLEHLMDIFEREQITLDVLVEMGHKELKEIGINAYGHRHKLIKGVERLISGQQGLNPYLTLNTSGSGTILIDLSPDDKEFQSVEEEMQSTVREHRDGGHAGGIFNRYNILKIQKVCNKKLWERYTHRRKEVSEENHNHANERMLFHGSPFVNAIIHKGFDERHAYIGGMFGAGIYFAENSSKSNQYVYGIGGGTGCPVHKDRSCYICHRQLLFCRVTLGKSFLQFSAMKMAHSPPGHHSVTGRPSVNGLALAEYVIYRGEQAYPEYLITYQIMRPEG
assay-explanation: TNKS2 biochemical assay (unreacted NAD+ fluorescence)
particulars: IC50 TNKS2, TNKS2 5 nM, 500 nM NAD+, 20 h; quadruplicates; 95% confidence intervals in parentheses; 24: averages of multiple independent measurements
reported-property: IC50 (nM)
Give the number; nM is assumed, so skip it.

Exam item: Annotate the compound CCOc1ccc(-c2nnc([C@H]3C[C@H](NC(=O)c4cccc5nccnc45)C3)n2-c2ccccc2F)nc1 [Compound 24] with its measured IC50.
Marked response: 1.6

The reported numbers originate from paper PMC8713164.
